Tested on: hTERT-HME1 healthy human breast epithelial cells
test name: Cell Titer Blue in vitro cell viability assay, hTERT-HME1
Format: cell-based
experimental parameters: 72 h, hTERT-HME1 (MEGM), 3 days at 37° C.
Non-standard residues stand in square brackets, D forms with d. Residues, ends and D or L forms follow the SMILES beside them. *: point of attachment. Palmitoyl = CCCCCCCCCCCCCCCC(=O)*
endpoint name: IC50 (µM)
# number only, unit µM dropped from output

# return recorded IC50 for entry CCCCCCCCCCCCCCCC(=O)N[C@H](Cc1c[nH]cn1)C(=O)N[C@@H](C(=O)OCC)C(C)C [Compound 5] (Palmitoyl-[dH]-[dV]-OEt) 270

====

Test system: OVCAR-3 human ovarian cancer cells
test name: Cell Titer Blue in vitro cell viability assay, OVCAR-3
Format: cell-based
experimental parameters: 72 h, OVCAR-3 (RPMI), 3 days at 37° C.
Procedure: FIG. 14: Dose Response curve for MBC0179 with OVCAR-3 cells. Compound MBC0179 was incubated with OVCAR-3 human ovarian cancer cells at the indicated concentrations for 3 days at 37° C. prior to Cell Titer Blue fluorescence-based cell viability assay. Normalized cell viability data, expressed as a percentage, are averaged from three biological replicates and standard error represented by error bars for each averaged data point (empty squares). […]
Non-standard residues stand in square brackets, D forms with d. Residues, ends and D or L forms follow the SMILES beside them. *: point of attachment. Palmitoyl = CCCCCCCCCCCCCCCC(=O)*
endpoint name: IC50 (µM)
API: value field is a number in µM; no unit string.

Name the recorded IC50 of the item CCCCCCCCCCCCCCCC(=O)N[C@H](Cc1c[nH]cn1)C(=O)N[C@@H](C(=O)OCC)C(C)C [Compound 5] (Palmitoyl-[dH]-[dV]-OEt) in your answer. 9.22
